Below, each of the compounds is paired with its reported log10 of Ki value.
target: Delta-type opioid receptor (Homo sapiens, UniProt P41143); assay: Displacement of [3H]naltrindole from human delta opioid receptor expressed in CHO cells after 3 hrs by liquid scintillation counting
Sequence (P41143 whole entry): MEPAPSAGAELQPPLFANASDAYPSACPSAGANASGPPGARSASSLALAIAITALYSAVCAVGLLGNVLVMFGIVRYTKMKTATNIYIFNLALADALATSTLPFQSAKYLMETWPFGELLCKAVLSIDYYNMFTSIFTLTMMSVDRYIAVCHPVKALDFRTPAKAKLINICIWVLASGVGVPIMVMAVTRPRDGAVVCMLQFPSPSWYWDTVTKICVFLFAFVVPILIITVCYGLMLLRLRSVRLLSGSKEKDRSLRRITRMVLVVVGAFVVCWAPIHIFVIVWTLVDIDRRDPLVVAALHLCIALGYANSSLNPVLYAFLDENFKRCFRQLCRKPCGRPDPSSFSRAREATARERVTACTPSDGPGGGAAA
reported.property: log10 of Ki (log10 of the value in nM)

{"columns": ["compound", "reported.property", "data.value"],
 "data": [
  ["CC(C)(CCCCCCC(C)(C)C(=O)Oc1ccc2c(c1)[C@@]13CCCC[C@H]1[C@@H](C2)N(CC1CCC1)CC3)C(=O)Oc1ccc2c(c1)[C@@]13CCCC[C@H]1[C@@H](C2)N(CC1CCC1)CC3", "log10 of Ki", 1.18],
  ["CC(CCCCCCC(C)C(=O)Oc1ccc2c(c1)[C@@]13CCCC[C@H]1[C@@H](C2)N(CC1CCC1)CC3)C(=O)Oc1ccc2c(c1)[C@@]13CCCC[C@H]1[C@@H](C2)N(CC1CCC1)CC3 (stereo not given in full)", "log10 of Ki", 1.57],
  ["CC(C)(CCCCCCC(C)(C)C(=O)Oc1ccc2c(c1)[C@@]13CCCC[C@H]1[C@@H](C2)N(CC1CCC1)CC3)C(=O)O", "log10 of Ki", 2.59],
  ["CC(CCCCCCC(C)C(=O)Oc1ccc2c(c1)[C@@]13CCCC[C@H]1[C@@H](C2)N(CC1CCC1)CC3)C(=O)O (stereo not given in full)", "log10 of Ki", 1.30],
  ["C=CCN1CC[C@]23c4c5ccc(OC(=O)CCCCCCCCC(=O)Oc6ccc7c(c6)[C@@]68CCCC[C@H]6C(C7)N(CC6CCC6)CC8)c4O[C@H]2CCC[C@H]3[C@H]1C5", "log10 of Ki", 1.59]
]}

* * *

test: Chemical stability assessed as hydrolysis half life in presence of porcine liver esterase; format: ADME; details: pig, isolated protein

{"columns": ["compound", "t1/2 / h"],
 "data": [
  ["CC(CCCCC(C)C(=O)Oc1ccc2c(c1)[C@@]13CCCC[C@H]1[C@@H](C2)N(CC1CCC1)CC3)C(=O)Oc1ccc2c(c1)[C@@]13CCCC[C@H]1[C@@H](C2)N(CC1CCC1)CC3 (some centres undefined)", 1.9],
  ["O=C(CCCCCCCCC(=O)Oc1ccc2c(c1)[C@@]13CCCC[C@H]1[C@@H](C2)N(CC1CCC1)CC3)Oc1ccc2c(c1)[C@@]13CCCC[C@H]1[C@@H](C2)N(CC1CCC1)CC3", 1.83],
  ["CC(C)(CCCCCCC(C)(C)C(=O)Oc1ccc2c(c1)[C@@]13CCCC[C@H]1[C@@H](C2)N(CC1CCC1)CC3)C(=O)Oc1ccc2c(c1)[C@@]13CCCC[C@H]1[C@@H](C2)N(CC1CCC1)CC3", 1.67],
  ["CC(CCCCCCC(C)C(=O)Oc1ccc2c(c1)[C@@]13CCCC[C@H]1[C@@H](C2)N(CC1CCC1)CC3)C(=O)Oc1ccc2c(c1)[C@@]13CCCC[C@H]1[C@@H](C2)N(CC1CCC1)CC3 (some centres undefined)", 2.18]
]}

* * *

target: Delta-type opioid receptor (Homo sapiens, UniProt P41143); test: Displacement of [3H]naltrindole from human delta opioid receptor expressed in CHO cells after 3 hrs by liquid scintillation counting

{"columns": ["compound", "Ki"],
 "data": [
  ["CC(C)(CCCCCCC(C)(C)C(=O)Oc1ccc2c(c1)[C@@]13CCCC[C@H]1[C@@H](C2)N(CC1CCC1)CC3)C(=O)OCc1ccccc1", "210 nM"],
  ["O=C(O)CCCCCCCCC(=O)Oc1ccc2c(c1)[C@@]13CCCC[C@H]1[C@@H](C2)N(CC1CCC1)CC3", "18 nM"],
  ["COC(=O)C(C)CCCCCCC(C)C(=O)Oc1ccc2c(c1)[C@@]13CCCC[C@H]1[C@@H](C2)N(CC1CCC1)CC3 (some centres undefined)", "42 nM"],
  ["CC(CCCCC(C)C(=O)Oc1ccc2c(c1)[C@@]13CCCC[C@H]1[C@@H](C2)N(CC1CCC1)CC3)C(=O)Oc1ccc2c(c1)[C@@]13CCCC[C@H]1[C@@H](C2)N(CC1CCC1)CC3 (some centres undefined)", "50 nM"]
]}
